ASSAY TEXT: LTEA_HepaRG_LDH_cytotoxicity: Cytotoxicity Assessment in the Life Technologies and Expression Analysis (LTEA) Assay (AID 2283563)
The source made the active and inactive calls. How the source made its calls: active means hit-call score of the fitted dose curve at least 0.9, where 1 is the maximum; inconclusive means response in the unintended direction; inactive means score below 0.9.
A correct response names exactly one class from t = active, f = inactive

# MOLECULE, CLASS NAME
rows = [
    ("N#Cc1c(Cl)cccc1Cl", "f"),
    ("CC(C)Nc1nc(Cl)nc(NC(C)C)n1", "f"),
    ("Cc1nc(N(C)C)nc(OC(=O)N(C)C)c1C", "f"),
    ("O=C(Nc1ccccc1-c1ccc(Cl)cc1)c1cccnc1Cl", "f"),
    ("Cn1c(-c2ccccc2)cc(-c2ccccc2)[n+]1C", "t"),
]

Okay, now this molecule:
Dear all, I need the recorded test outcome for "Nc1c(Cl)c(F)nc(OCC(=O)O)c1Cl" , thank you.
f

---

ASSAY TEXT: ATG_GATA_CIS: Attagene CIS-FACTORIAL HepG2 Assay for human GATA Binding Protein (AID 2282944)
EXPERIMENTAL SETUP: HepG2 GATA cis-element reporter, Attagene multiplex mRNA; actives raise or lower the signal
The source made the active and inactive calls. How the source made its calls: active means hit-call score of the fitted dose curve at least 0.9, where 1 is the maximum; inactive means score below 0.9.
Parameter call: string, one of active, inactive

Given "COP(=S)(OC)SCn1nnc2ccccc2c1=O" , state the outcome it received in this test.
inactive

Could you kindly confirm the outcome this assay logged for "CC1(C)CON(Cc2ccccc2Cl)C1=O" ?
inactive

Test call, this compound: "COC(=O)c1c(C(F)F)nc(C(F)(F)F)c(C2=NCCS2)c1CC(C)C"
active

Which outcome was assigned to "O=c1n(Cl)c(=O)n(Cl)c(=O)n1Cl" in this test?
inactive

Short answer needed: outcome of this test for "CC(C)Oc1cccc(NC(=O)c2ccccc2C(F)(F)F)c1" ?
inactive

Dear colleague, could you share the recorded outcome for "N#CN=C1SCCN1Cc1ccc(Cl)nc1" when you have a moment?
inactive

Entry "Cc1c(COC(=O)[C@@H]2[C@H](/C=C(\Cl)C(F)(F)F)C2(C)C)cccc1-c1ccccc1" : call = ?
inactive

Just curious, what result did "CN/C(=N\[N+](=O)[O-])NCc1cnc(Cl)s1" get here?
inactive

Per the assay record, what outcome was assigned to "CC(C)Nc1nc(Cl)nc(NC(C)C)n1" ?
inactive

Fill in: this test's call for "COC(=O)N(C(=O)N1CO[C@@]2(C(=O)OC)Cc3cc(Cl)ccc3C2=N1)c1ccc(OC(F)(F)F)cc1" is ___
inactive

Called result for CCN(CC)C(=O)C(C)Oc1cccc2ccccc12 (configuration not stated)
inactive

Can you look up the reported call for "O=P(O)(O)CCCl" for me?
inactive

---

Read-out: E-selectin (Homo sapiens) (UniProt P16581)
Sequence (P16581 whole entry, looked up): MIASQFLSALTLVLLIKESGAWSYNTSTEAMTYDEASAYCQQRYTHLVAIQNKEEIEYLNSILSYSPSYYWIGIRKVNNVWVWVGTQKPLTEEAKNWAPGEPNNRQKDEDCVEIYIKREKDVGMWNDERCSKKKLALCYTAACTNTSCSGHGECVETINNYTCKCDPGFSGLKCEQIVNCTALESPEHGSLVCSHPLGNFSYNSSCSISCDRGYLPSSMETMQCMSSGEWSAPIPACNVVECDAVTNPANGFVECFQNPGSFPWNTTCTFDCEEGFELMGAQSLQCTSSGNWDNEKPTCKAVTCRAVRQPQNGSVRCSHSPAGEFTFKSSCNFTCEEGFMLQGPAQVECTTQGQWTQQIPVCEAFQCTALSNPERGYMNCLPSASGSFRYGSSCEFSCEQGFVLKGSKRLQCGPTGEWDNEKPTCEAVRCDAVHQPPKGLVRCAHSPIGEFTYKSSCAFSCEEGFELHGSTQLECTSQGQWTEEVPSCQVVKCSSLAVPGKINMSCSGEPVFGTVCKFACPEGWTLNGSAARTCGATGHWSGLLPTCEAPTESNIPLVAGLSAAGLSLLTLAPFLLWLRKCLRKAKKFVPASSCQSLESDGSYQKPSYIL
ASSAY TEXT: BSK_LPS_Eselectin: BioMAP Diversity Plus: LPS Assay for Eselectin Biomarker Activity (AID 2283077)
EXPERIMENTAL SETUP: primary human HUVEC with PBMC; actives raise or lower the signal
Activity calls are given as the source filed them. How the source made its calls: active means hit-call score of the fitted dose curve at least 0.9, where 1 is the maximum; inactive means score below 0.9.
Thanks in advance; please answer with one of these: active, inactive

Record lookup: outcome of this test for "Cc1cc(C)nc(Nc2ccccc2)n1" ?
inactive

Dear colleague, could you share the recorded outcome for CC1(C)C(C=C(Cl)Cl)C1C(=O)OC(C#N)c1cccc(Oc2ccccc2)c1 (stereo unspecified) when you have a moment?
inactive

Just curious, what result did COCc1cnc(C2=NC(C)(C(C)C)C(=O)N2)c(C(=O)O)c1 (stereo unspecified) get here?
inactive

Please share the test call associated with CC(C)=CC1C(C(=O)OCc2coc(Cc3ccccc3)c2)C1(C)C (stereo unspecified) .
active

Entry "Cc1ccc(N=CN(C)C=Nc2ccc(C)cc2C)c(C)c1" : call = ?
active

For "O=C(Nc1ccccc1-c1ccc(Cl)cc1)c1cccnc1Cl" , what call appears in the results of this test?
inactive

---

ASSAYED TARGET: human Peripheral-type Benzodiazepine Receptor (PBR), TSPO (gene 706) (UniProt P30536)
Sequence (P30536 whole entry, looked up): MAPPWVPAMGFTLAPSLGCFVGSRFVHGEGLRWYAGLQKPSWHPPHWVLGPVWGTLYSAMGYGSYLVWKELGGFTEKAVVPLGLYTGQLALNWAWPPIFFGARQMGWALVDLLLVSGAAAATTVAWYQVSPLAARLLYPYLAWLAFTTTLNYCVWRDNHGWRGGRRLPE
ASSAY TEXT: NVS_MP_hPBR: NovaScreen (NVS) Membrane Protein Assay for human Peripheral-type Benzodiazepine Receptor (PBR) (AID 2283331);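 further: hits reduce radioligand binding relative to DMSO baseline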
Results filed as inconclusive are left out. Activity calls are given as the source filed them. How the source made its calls: active means hit-call score of the fitted dose curve at least 0.9, where 1 is the maximum; inconclusive means response in the unintended direction; inactive means score below 0.9.
I would appreciate it if you answered using one of these outcomes: 1 for active, 0 for inactive

# COMPOUND, CLASS NAME
data = [
    ("COC(=O)N(C(=O)N1CO[C@@]2(C(=O)OC)Cc3cc(Cl)ccc3C2=N1)c1ccc(OC(F)(F)F)cc1", 1),
    ("CC1(C)C(C=C(Cl)Cl)C1C(=O)OC(C#N)c1cccc(Oc2ccccc2)c1 (configuration not stated)", 1),
    ("CCN(CC)C(=O)C(C)Oc1cccc2ccccc12 (configuration not stated)", 1),
    ("Cc1nc(N(C)C)nc(OC(=O)N(C)C)c1C", 1),
    ("CCNP(=S)(OC)O/C(C)=C/C(=O)OC(C)C (configuration not stated)", 1),
    ("CCN(CC)c1nc(C)cc(OP(=S)(OC)OC)n1", 1),
]

As a next step, examine the compound that follows.
Hello, I am checking results. What call was entered for CCCCC(C#N)(Cn1cncn1)c1ccc(Cl)cc1 (configuration not stated) ?
0

---

Read-out: Alpha-fetoprotein (AFP) gene, AFP (gene 174)
ASSAY TEXT: LTEA_HepaRG_AFP: Life Technologies and Expression Analysis (LTEA) Assay for Alpha-fetoprotein (AFP) gene using HepaRG (AID 2283472)
EXPERIMENTAL SETUP: mRNA level, 48 h; actives raise or lower the signal
The source made the active and inactive calls. The calls were made as follows: active = hit-call score of the fitted dose curve at least 0.9, where 1 is the maximum; inactive = score below 0.9.
Field 'call' accepts active, inactive

Solved entries (count: 5):
# COMPOUND, CLASS NAME
measured = [
    ("CC1(C)CON(Cc2ccccc2Cl)C1=O", "inactive"),
    ("Nc1cnn(-c2ccccc2)c(=O)c1Cl", "inactive"),
    ("CO/N=C(/C1=NOCCO1)c1ccccc1Oc1ncnc(Oc2ccccc2Cl)c1F", "active"),
    ("CCOP(=O)(OCC)Oc1nc(Cl)c(Cl)cc1Cl", "active"),
    ("C=CCOC(=O)C(C)(C)OC(=O)c1cc(-n2c(=O)cc(C(F)(F)F)n(C)c2=O)ccc1Cl", "inactive"),
]

Now examine the next entry.
Record request — test call for "CS(=O)(=O)c1ccc(C(=O)C2C(=O)CCCC2=O)c([N+](=O)[O-])c1"
inactive

---

Read-out: Pyruvate Dehydrogenase Kinase 4 (PDK4), PDK4 (gene 5166)
ASSAY TEXT: LTEA_HepaRG_PDK4: Life Technologies and Expression Analysis (LTEA) Assay for Pyruvate Dehydrogenase Kinase 4 (PDK4) using HepaRG (AID 2283525)
EXPERIMENTAL SETUP: mRNA level, 48 h; actives raise or lower the signal
The source made the active and inactive calls. The calls were made as follows: active = hit-call score of the fitted dose curve at least 0.9, where 1 is the maximum; inactive = score below 0.9.
TEST READOUT: AC50

Illustrative cases are given below, each with its answer.
# MOLECULE, TEST READOUT, RECORDED VALUE
measured = [
    ("COCC(=O)N(c1c(C)cccc1C)C(C)C(=O)OC (stereo not given)", "AC50", "inactive"),
    ("N#Cc1c(Cl)cccc1Cl", "AC50", "inactive"),
    ("CN/C(=N\\[N+](=O)[O-])NCc1cnc(Cl)s1", "AC50", "36.6 µM (active)"),
    ("CN=C=S", "AC50", "inactive"),
    ("CCOc1nc(F)cc2nc(S(=O)(=O)Nc3c(Cl)cccc3Cl)nn12", "AC50", "inactive"),
]

What measured AC50 goes with "CCOP(=S)(OCC)Oc1nc(Cl)n(C(C)C)n1" ?
1.82 µM (active)

Quick one: AC50 for "Cc1ccc(N=CN(C)C=Nc2ccc(C)cc2C)c(C)c1" ?
inactive

I would be grateful if you could share the reported AC50 for "CCSC(=O)N1CCCCCC1" .
inactive

I would be grateful if you could share the reported AC50 for "Cc1c(COC(=O)[C@@H]2[C@H](/C=C(\Cl)C(F)(F)F)C2(C)C)cccc1-c1ccccc1" .
inactive

For the molecule "OC(c1ccc(Cl)cc1)(c1ccc(Cl)cc1)C(Cl)(Cl)Cl" , what AC50 is on record?
80.5 µM (active)

AC50 lookup needed for "C=CCOC(=O)C(C)(C)OC(=O)c1cc(-n2c(=O)cc(C(F)(F)F)n(C)c2=O)ccc1Cl" , thanks.
inactive

What does the data say about its AC50? Entry: "CC(C)Nc1nc(Cl)nc(NC(C)C)n1"
inactive

Query (molecule): "CO/N=C(/C1=NOCCO1)c1ccccc1Oc1ncnc(Oc2ccccc2Cl)c1F" ; field requested: AC50
11.7 µM (active)

Field request: AC50 | item: COCc1cnc(C2=NC(C)(C(C)C)C(=O)N2)c(C(=O)O)c1 (stereo not given)
inactive

Can you share its AC50? I mean this molecule: CCN(CC)C(=O)C(C)Oc1cccc2ccccc12 (stereo not given)
inactive

---

Tested on: DIO2 (gene 1734)
ASSAY TEXT: CCTE_GLTED_hDIO2: CCTE's human Deiodinase 2 (DIO2) Inhibition Assay, Great Lakes Toxicology and Ecology Division (GLTED) Lab (AID 2284050)
Active and inactive are the calls of the source. The calls were made as follows: active = hit-call score of the fitted dose curve at least 0.9, where 1 is the maximum; inconclusive = response in the unintended direction; inactive = score below 0.9.
Below: a set of entries, each annotated with reported AC50.

Consider the worked cases shown below.
# COMPOUND, AC50
measured = [
    ("OC(c1ccc(Cl)cc1)(c1ccc(Cl)cc1)C(Cl)(Cl)Cl", "76.4 µM (active)"),
    ("CC(C)=CC1C(C(=O)OCc2coc(Cc3ccccc3)c2)C1(C)C (centres undefined)", "38.5 µM (active)"),
    ("CCN(CC)c1nc(C)cc(OP(=S)(OC)OC)n1", "31.1 µM (active)"),
]

We next turn to a different compound, shown below.
API: value(readout= AC50, system= DIO2 (gene 1734), query= "Cc1nc(N(C)C)nc(OC(=O)N(C)C)c1C" )
44.6 µM (active)
